TEST_PROTOCOL: Phase Ib DDI study: plasma PK of ipatasertib and M1 after ipatasertib 400 mg QD alone and with darolutamide 600 mg BID
Assay type: in vivo
CONDITION_DETAILS: male, human, oral, 400 mg, Reference = ipatasertib only, n = 13, linear mixed model, read-out: Cmax,ss, Reference Geometric Mean
REPORTED_ENDPOINT: Cmax (ng/mL)
The response must be a number in ng/mL with no trailing unit.

Quick one: give measured Cmax for CC(C)NC[C@@H](C(=O)N1CCN(c2ncnc3c2[C@H](C)C[C@H]3O)CC1)c1ccc(Cl)cc1
452

----------
TEST_PROTOCOL: Phase Ib DDI study: plasma PK of ipatasertib and M1 after ipatasertib 400 mg QD alone and with darolutamide 600 mg BID
Type: in vivo
CONDITION_DETAILS: male, human, oral, Test = ipatasertib with darolutamide, n = 13, linear mixed model, read-out: Cmax,ss, Test Geometric Mean
Protocol: Figure 1 presents an overview of the study design. Stable labeled internal standards were used for both analytes. Only median, min, and max were evaluated for Tmax. […]
REPORTED_ENDPOINT: Cmax (ng/mL)
The response must be a number in ng/mL with no trailing unit.

Quick one: give measured Cmax for CC(C)NC[C@@H](C(=O)N1CCN(c2ncnc3c2[C@H](C)C[C@H]3O)CC1)c1ccc(Cl)cc1
355

----------
TEST_PROTOCOL: Phase Ib DDI study: plasma PK of ipatasertib and M1 after ipatasertib 400 mg QD alone and with darolutamide 600 mg BID
Type: in vivo
CONDITION_DETAILS: male, human, oral, ipatasertib 400 mg QD alone, Cycle 1 Day 10, n = 14, geometric mean (%CV)
REPORTED_ENDPOINT: AUC(0-t) (ng·h/mL)
The response must be a number in ng·h/mL with no trailing unit.

Quick one: give measured AUC(0-t) for CC(C)NC[C@@H](C(=O)N1CCN(c2ncnc3c2[C@H](C)C[C@H]3O)CC1)c1ccc(Cl)cc1
2670

----------
TEST_PROTOCOL: Phase Ib DDI study: plasma PK of ipatasertib and M1 after ipatasertib 400 mg QD alone and with darolutamide 600 mg BID
Type: in vivo
CONDITION_DETAILS: male, human, oral, 400 mg, ipatasertib 400 mg QD alone, Cycle 1 Day 10, n = 14, geometric mean (%CV), read-out: Cmax,ss
REPORTED_ENDPOINT: Cmax (ng/mL)
The response must be a number in ng/mL with no trailing unit.

Quick one: give measured Cmax for CC(C)NC[C@@H](C(=O)N1CCN(c2ncnc3c2[C@H](C)C[C@H]3O)CC1)c1ccc(Cl)cc1
462

----------
TEST_PROTOCOL: Phase Ib DDI study: plasma PK of ipatasertib and M1 after ipatasertib 400 mg QD alone and with darolutamide 600 mg BID
Assay type: in vivo
CONDITION_DETAILS: male, human, oral, ipatasertib 400 mg QD with darolutamide 600 mg BID, Cycle 1 Day 28, n = 13, median (min, max)
REPORTED_ENDPOINT: Tmax
For clarity, give the value followed by its unit.

Quick one: give measured Tmax for CC(C)NC[C@@H](C(=O)N1CCN(c2ncnc3c2[C@H](C)C[C@H]3O)CC1)c1ccc(Cl)cc1 [Ipatasertib]
2 h

----------
TEST_PROTOCOL: Phase Ib DDI study: plasma PK of ipatasertib and M1 after ipatasertib 400 mg QD alone and with darolutamide 600 mg BID
Format: in vivo
CONDITION_DETAILS: male, human, oral, Test = ipatasertib with darolutamide, n = 13, linear mixed model, read-out: AUC0–tau,ss, Test Geometric Mean
REPORTED_ENDPOINT: AUC (ng·h/mL)
The response must be a number in ng·h/mL with no trailing unit.

Quick one: give measured AUC for CC(C)NC[C@@H](C(=O)N1CCN(c2ncnc3c2[C@H](C)C[C@H]3O)CC1)c1ccc(Cl)cc1
2400

----------
TEST_PROTOCOL: Phase Ib DDI study: plasma PK of ipatasertib and M1 after ipatasertib 400 mg QD alone and with darolutamide 600 mg BID
Assay type: in vivo
CONDITION_DETAILS: male, human, oral, ipatasertib 400 mg QD with darolutamide 600 mg BID, Cycle 1 Day 28, n = 13, geometric mean (%CV), tau = 24 h, read-out: AUC0–tau,ss
REPORTED_ENDPOINT: AUC (ng·h/mL)
The response must be a number in ng·h/mL with no trailing unit.

Quick one: give measured AUC for CC(C)NC[C@@H](C(=O)N1CCN(c2ncnc3c2[C@H](C)C[C@H]3O)CC1)c1ccc(Cl)cc1
2400

----------
TEST_PROTOCOL: Phase Ib DDI study: plasma PK of ipatasertib and M1 after ipatasertib 400 mg QD alone and with darolutamide 600 mg BID
Assay type: in vivo
CONDITION_DETAILS: male, human, oral, 400 mg, ipatasertib 400 mg QD alone, Cycle 1 Day 10, n = 14, geometric mean (%CV), tau = 24 h, mCRPC patients, read-out: AUC0–tau,ss
Method: Figure 1 presents an overview of the study design. Stable labeled internal standards were used for both analytes. Only median, min, and max were evaluated for Tmax. […]
REPORTED_ENDPOINT: AUC (ng·h/mL)
The response must be a number in ng·h/mL with no trailing unit.

Quick one: give measured AUC for CC(C)NC[C@@H](C(=O)N1CCN(c2ncnc3c2[C@H](C)C[C@H]3O)CC1)c1ccc(Cl)cc1
2660

----------
TEST_PROTOCOL: Phase Ib DDI study: plasma PK of ipatasertib and M1 after ipatasertib 400 mg QD alone and with darolutamide 600 mg BID
Assay type: in vivo
CONDITION_DETAILS: male, human, oral, ipatasertib 400 mg QD with darolutamide 600 mg BID, Cycle 1 Day 28, n = 13, geometric mean (%CV), read-out: Cmax,ss
REPORTED_ENDPOINT: Cmax (ng/mL)
The response must be a number in ng/mL with no trailing unit.

Quick one: give measured Cmax for CC(C)NC[C@@H](C(=O)N1CCN(c2ncnc3c2[C@H](C)C[C@H]3O)CC1)c1ccc(Cl)cc1
355

----------
TEST_PROTOCOL: Phase Ib DDI study: plasma PK of darolutamide and keto-darolutamide at steady state in combination with ipatasertib
CONDITION_DETAILS: male, human, plasma, oral
Method: This was an open-label, multicenter, Phase Ib study designed to assess the safety, tolerability, and the drug–drug interaction of the combined administration of 400 mg QD oral ipatasertib and 600 mg BID oral darolutamide. […] Plasma concentrations of ipatasertib and its metabolite M1 were determined using a previously reported, validated liquid chromatography–tandem mass spectrometry assay (LC-MS/MS). […]
REPORTED_ENDPOINT: Tmax (h)
The response must be a number in h with no trailing unit.

Quick one: give measured Tmax for CC(O)c1cc(C(=O)N[C@@H](C)Cn2ccc(-c3ccc(C#N)c(Cl)c3)n2)[nH]n1 (stereo partly shown) [Darolutamide]
4.23
